# EC50 annotations
- Test system: H4
- Assay name: Luminescence Cell-Based Dose Response HTS to Identify Activators of 5'UTR Stem-Loop Driven Prion Protein mRNA Translation in H4 Neuroglioblastoma Cells. [Related pubchem assays: 1829 (Project Summary), 1814 (Primary HTS)]
- Type: functional
- Details: Homo sapiens
The source made the active and inactive calls. Rule as the data show it: actives have a measured EC50 and inactives only a lower limit.
Measurement kind: EC50

entry_smiles=O=[N+]([O-])c1cc(-c2n(-c3ccccn3)c3ccccc3[n+]2-c2ccccn2)ccc1Cl measurement_kind=EC50 result="> 120 µM (not active)"
entry_smiles=Nc1c(-c2ccccc2)cnn1-c1cccc(C(F)(F)F)c1 measurement_kind=EC50 result="8 µM (active)"
entry_smiles=O=[N+]([O-])c1cccc(-c2cn(-c3ccccc3)c(S)n2)c1 measurement_kind=EC50 result="> 120 µM (not active)"
entry_smiles=O=C(c1ccco1)N1CCn2c1nc1ccccc12 measurement_kind=EC50 result="6.26 µM (active)"
entry_smiles=CCOc1ccc(Nc2ncnc3c2nnn3Cc2ccccc2)cc1 measurement_kind=EC50 result="30.9 µM (active)"
entry_smiles=O=C1OC(c2ccccc2)=N/C1=C\N1CCCCC1 measurement_kind=EC50 result="> 120 µM (not active)"
entry_smiles=Fc1ccccc1CSc1nc2cc(Br)c[nH]c-2n1 measurement_kind=EC50 result="20.3 µM (active)"
